targetUnderTest: T1, ECF03_1198
T1 chain: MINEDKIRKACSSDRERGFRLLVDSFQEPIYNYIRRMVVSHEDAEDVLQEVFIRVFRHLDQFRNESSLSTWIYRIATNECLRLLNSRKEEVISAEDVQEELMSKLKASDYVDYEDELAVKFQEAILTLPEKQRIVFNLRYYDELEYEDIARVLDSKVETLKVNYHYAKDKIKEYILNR

# binder, fold repression
data = [
    ("AS22_1147 (protein) MELDDIAVAWRSLEQRLDQHAALAGQVLGDLRSHAARAHLRPLWLSQSAQLLCAIALSGLVAHSWLAFPEQAAAIVGGVLLQIWCVALAASAARQLWLLSQLDFARPLLQTQRALAQLRRWRTRVAPWLGVAFWVLWVAVADAAWRALTGRSLPYAWLLCNLLVGVLGGIGTWLGYRRLQRSGHPWLERLDTVHAGRSVARTETLLEQIARFQRE", 2.82),
    ("AS22_4450 (protein) MELDDMKHAWQTLEQRLDQQAAQTGQLLGVVHEETVRSSLRPLWVAQTAQLLCALALAIVSARSWIPHTDQPVAVIGGVLLQAWCMALAISAMVQLQLLTQFNVAGPLLRTQHALARLRRWRTRVAPWLGVAFWVLWIAVADALWRALTGQTLPTDWLVLNLLVGVAGGIGTWLGFRRLQRAQHPWLERIDRAHAGTGVIRAERMLEEIARFQRD", 2.46),
    ("AS30_35 (protein) MDKRLQQLREEYKNVQIPKELDIIVEKALQQEPKKKRIVMWPTSAAIAAAILFTALVNINPDAAQAMSKIPVIGKIVKAITFIEIKEEKDQSSIDVKTPALSGLSNKELENSINEKYLKESQQLYKEFIQSTSKNKKGHLSIYSDYETVTDTPDLLSIRRNIETTQASSYTQSRYITIDKKNDILLTLKSLFKDERYIKVISQNIKEQMKQQMKEDPNKIYWLTDEDAEPFKTILPDQTFYITEDHKLVISFDEYEVAPGYMGVTEFTIPTGVISNLLVGERYIR", 1.96),
    ("AS01_3473 (protein) MSNYDNAELLALWLEGKLTPKQRDEFEQRCIQDSQFAEQVDAAAMVKIGADDYSSSEVPQWNKAATFEPQQANNSGSWLSGVSLVTSALAIVLVLTGTQVTTSEGELRIRFGSGQSEQALVKLVDSKLDAFKQNQQDAFTLYAQTLQQQQSESASQLTNYLLSSSRKERREDFAELIKFVNQQRSDDQLFYARQLNQLQQDVYHDATGVALESIQQ", 1.5),
    ("AS02_915 (protein) MEKTGQEWVSASVDGETDRQTLAELAADTDSHAKWQRYHLMGDAMRDELPQAMPLDLSARIAAALEDEPTILAPKVEREATQAPSRAVVVPFMRQLGQYGIAAAVALMAVVGVQNYQSTQDDAPLPVLNTRPLVGTATPVSLQTGPVANQNQGNANDQLLEQRRRINAYLQDHMLQQRLNTGAVVDDNSEVTPIPVNR", 3.28),
    ("AS37_2513 (protein) MSSAPATKEEVDFALKVRRALDERAASLPDATTDRLAAARRAALARKKPDAAIVLVPALAGSAGTLELRPPGEPRKSLARRLARAWPLALLLAGLIGIAYWEDMQRTAELADIDAAMLSDNLPLTAYLDHGFNAYLSHTH", 4.01),
    ("AS27_4265 (protein) MTGHPDVAEIADLAEGLLPTTRTTEVRQHLESCELCADVYASLTEIQGLLGTLPAPAPMPDDVAARIDAALAAEPPLGIADGTRVSRETSTPADRPAGHARPSSTGPGRKDRRRGGRRRIAVLGAVAAAAAIGIGSVVVSSLTEDSSSGNTAREQQTAIADTFSEGRLKDRVTNLVADGSAENGSRTPRSFGMESENGGETAENHVFKQPTVPECIRKGIGRDDAVIATEPGVYKGREALLVVLPDATNDTQVTAYIVETACVDQPAVGKAKILLEHSYARS", 2.19),
]
